# AUC(0-inf) per entry
- ASSAY: AUC(0 to infinity) in mouse at 20 mg/kg, po
- Assay type: ADME, organism-based
- Design: dose 20 mg/kg, route po
- TEST_SETTINGS: in vivo

>  <MOLECULE>
COc1c(N2CCN(C)CC2)c(F)cc2c(=O)c(C(=O)O)c3n(c12)C(CF)S3 (centres undefined)

>  <AUC(0-inf), ng·h/mL>
3500

$$$$
>  <MOLECULE>
CN1CCN(c2cc3c(cc2F)c(=O)c(C(=O)O)c2n3C(CF)S2)CC1 (centres undefined)

>  <AUC(0-inf), ng·h/mL>
6900

$$$$
>  <MOLECULE>
CC1Sc2c(C(=O)O)c(=O)c3cc(F)c(N4CCN(C)CC4)cc3n21 (centres undefined)

>  <AUC(0-inf), ng·h/mL>
2600

$$$$
>  <MOLECULE>
COc1c(N2CCN(C)CC2)c(F)cc2c(=O)c(C(=O)O)c3n(c12)C(C)S3 (centres undefined)

>  <AUC(0-inf), ng·h/mL>
2700

$$$$
